Ref: patent US12454520B2

- measurement.target: SMARCA2 (Homo sapiens, UniProt P51531)
- Construct: endogenous in cells; host or cells: NCI-H1299
- Sequence (P51531 whole entry): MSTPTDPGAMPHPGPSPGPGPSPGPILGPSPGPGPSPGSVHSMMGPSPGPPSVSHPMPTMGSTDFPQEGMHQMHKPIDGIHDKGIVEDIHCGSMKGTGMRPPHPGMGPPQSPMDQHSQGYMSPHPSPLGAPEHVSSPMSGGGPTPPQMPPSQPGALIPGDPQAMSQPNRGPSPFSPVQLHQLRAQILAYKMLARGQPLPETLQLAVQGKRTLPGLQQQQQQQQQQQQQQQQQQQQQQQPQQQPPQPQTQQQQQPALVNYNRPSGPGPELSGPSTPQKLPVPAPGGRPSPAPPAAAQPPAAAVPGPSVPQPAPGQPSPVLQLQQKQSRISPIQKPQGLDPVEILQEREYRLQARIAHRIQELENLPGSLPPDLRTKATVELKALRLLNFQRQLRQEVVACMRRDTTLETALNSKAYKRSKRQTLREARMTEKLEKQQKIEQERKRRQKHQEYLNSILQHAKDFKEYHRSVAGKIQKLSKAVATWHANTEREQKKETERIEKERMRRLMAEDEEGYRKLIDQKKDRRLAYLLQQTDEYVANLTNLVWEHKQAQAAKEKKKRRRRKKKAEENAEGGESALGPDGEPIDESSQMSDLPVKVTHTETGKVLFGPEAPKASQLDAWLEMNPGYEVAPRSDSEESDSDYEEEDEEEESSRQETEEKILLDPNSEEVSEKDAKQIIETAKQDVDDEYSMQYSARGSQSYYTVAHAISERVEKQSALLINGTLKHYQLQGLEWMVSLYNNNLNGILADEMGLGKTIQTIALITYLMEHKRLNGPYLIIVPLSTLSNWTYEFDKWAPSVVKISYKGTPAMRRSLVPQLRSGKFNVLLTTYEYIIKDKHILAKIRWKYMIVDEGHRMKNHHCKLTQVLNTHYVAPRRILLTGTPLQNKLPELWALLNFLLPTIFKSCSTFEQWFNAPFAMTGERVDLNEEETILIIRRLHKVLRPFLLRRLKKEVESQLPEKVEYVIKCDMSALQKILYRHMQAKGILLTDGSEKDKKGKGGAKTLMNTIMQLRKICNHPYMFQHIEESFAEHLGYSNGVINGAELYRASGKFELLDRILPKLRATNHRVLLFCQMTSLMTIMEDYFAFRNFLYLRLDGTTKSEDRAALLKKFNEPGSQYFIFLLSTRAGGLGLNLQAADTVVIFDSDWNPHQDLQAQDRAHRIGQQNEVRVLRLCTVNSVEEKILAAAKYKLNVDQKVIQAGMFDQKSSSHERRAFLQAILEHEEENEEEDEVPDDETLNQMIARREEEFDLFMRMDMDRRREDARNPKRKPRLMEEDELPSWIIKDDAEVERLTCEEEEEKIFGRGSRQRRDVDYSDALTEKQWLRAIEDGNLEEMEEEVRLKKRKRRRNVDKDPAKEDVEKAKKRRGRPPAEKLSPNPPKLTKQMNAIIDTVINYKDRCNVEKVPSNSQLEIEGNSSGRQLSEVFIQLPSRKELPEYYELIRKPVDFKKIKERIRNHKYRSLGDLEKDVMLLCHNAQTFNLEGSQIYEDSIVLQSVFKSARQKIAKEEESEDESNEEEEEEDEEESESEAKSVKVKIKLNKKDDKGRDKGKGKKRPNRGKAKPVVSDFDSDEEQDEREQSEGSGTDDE
- test: MSD SMARCA2 degradation in NCI-H1299 cell line
- Assay type: cell-based
- condition.parameters: NCI-H1299 cells, percentage of SMARCA2 degradation after 24 hours
The reader will find reported Dmax values listed item by item below.

Some compounds with recorded Dmax:
Query string: Find the recorded Dmax belonging to Nc1nnc(-c2ccccc2O)cc1N1CCN(CCCCCc2cccc3c2c2cccnc2n3C2CCC(=O)NC2=O)CC1 (stereo not drawn) and report it.
Result string: < 50%

Query string: Can you look up the measured Dmax of Nc1nnc(-c2ccccc2O)cc1-c1ccc(CN2CCN(CCCCCCCc3ccc4c(c3)c3cccnc3n4C3CCC(=O)NC3=O)CC2)cc1 (stereo not drawn) for me?
Result string: 70 to 90%

Query string: Entry under review: Nc1nnc(-c2ccccc2O)cc1-c1cnn(CC2CCN(CCCc3ccnc4c3c3ccccc3n4C3CCC(=O)NC3=O)CC2)c1 (stereo not drawn) . Reported Dmax?
Result string: > 90%

More entries:
Query string: What value of Dmax has been reported for the following compound? Nc1nnc(-c2ccccc2O)cc1N1CCN(Cc2cccc3c2c2cccnc2n3C2CCC(=O)NC2=O)CC1 (stereo not drawn)
Result string: < 50%

Query string: Look up Dmax: Nc1nnc(-c2ccccc2O)cc1-c1ccc(CN2CCN(CCCCCCCc3ccnc4c3c3ccccc3n4C3CCC(=O)NC3=O)CC2)cc1 (stereo not drawn)
Result string: 70 to 90%

Query string: // Dmax lookup, key: Nc1nnc(-c2ccccc2O)cc1-c1cnn(CC2CCN(CCCCCc3ccnc4c3c3ccccc3n4C3CCC(=O)NC3=O)CC2)c1 (stereo not drawn)
Result string: > 90%

====

- measurement.target: SMARCA2 (Homo sapiens)
- Construct: endogenous in cells; host or cells: NCI-H1299
- test: MSD SMARCA2 degradation in NCI-H1299 cell line
- Format: cell-based
- condition.parameters: NCI-H1299 cells, percentage of SMARCA2 degradation after 24 hours
outcome.measure: Dmax

Query string: Look up Dmax: Nc1nnc(-c2ccccc2O)cc1-c1ccc(CN2CCN(CCCCCCCCCc3ccc4c(c3)c3cccnc3n4C3CCC(=O)NC3=O)CC2)cc1 (stereo not drawn) [I-77]
Result string: > 90%

Query string: Requested read-out: Dmax. Entry: Nc1nnc(-c2ccccc2O)cc1N1CC2CCC(C1)N2c1ncc(C2CCN(CCCc3ccnc4c3c3ccccc3n4C3CCC(=O)NC3=O)CC2)cn1 (stereo not drawn) [I-145]
Result string: > 90%

Query string: Would you kindly share the measured Dmax for Nc1nnc(-c2ccccc2O)cc1-c1ccc(CN2CCN(CCCCCCCc3cccc4c3c3cccnc3n4C3CCC(=O)NC3=O)CC2)cc1 (stereo not drawn) [I-80] ?
Result string: > 90%

Query string: Form field: reported Dmax of CN(Cc1ccc(N2CCN(c3cc(-c4ccccc4O)nnc3N)CC2)cc1)CC1CCN(Cc2ccc3c(c2)c2cccnc2n3C2CCC(=O)NC2=O)CC1 (stereo not drawn) [I-85]
Result string: > 90%

Query string: I have this molecule here, Nc1nnc(-c2ccccc2O)cc1-c1ccc(CN2CCN(CCCCCCc3cccc4c3c3cccnc3n4C3CCC(=O)NC3=O)CC2)cc1 (stereo not drawn) [I-79] , and I need its recorded Dmax.
Result string: 50 to 70%

--- query ---
Query string: Look up Dmax for this molecule: Nc1nnc(-c2ccccc2O)cc1-c1cnn(CC2CCN(Cc3cccc4c3c3cccnc3n4C3CCC(=O)NC3=O)CC2)c1 (stereo not drawn) [I-96]
Result string: 50 to 70%
